target: RAC-gamma serine/threonine-protein kinase (Homo sapiens); conditions: at 0.1 µM
Description: GSK_PKIS: AKT3 mean inhibition at 0.1 uM [Nanosyn]
Documented inhibition across a set of compounds

{"COMPOUND": "CCS(=O)(=O)c1ccc(OC)c(Nc2ncc(-c3cccc(-c4ccccc4F)c3)o2)c1", "inhibition [%]": 1.02}
{"COMPOUND": "CN(c1ccc(NC(=O)Nc2c(Cl)cccc2Cl)cc1)c1ccnc(Nc2cccc(CS(C)(=O)=O)c2)n1", "inhibition [%]": 3.21}
{"COMPOUND": "O=C(Nc1n[nH]c2cc(-c3cc(F)ccc3F)ccc12)C1CC1", "inhibition [%]": 1.03}
{"COMPOUND": "COc1ccc2cc(-c3c(-c4ccncc4)nc(-c4ccc(S(C)(=O)=O)cc4C)n3C)ccc2c1", "inhibition [%]": 2.8}
{"COMPOUND": "COc1cc(N2CCN(C(C)C)CC2)ccc1Nc1nc(Nc2ccc(F)cc2C(=O)NC[C@@H](O)CO)c2cc[nH]c2n1", "inhibition [%]": -2.3}
{"COMPOUND": "NS(=O)(=O)c1ccc(Nc2cc(-c3ccc(O)c(F)c3)n[nH]2)cc1", "inhibition [%]": -3.06}
{"COMPOUND": "O=C(Nc1n[nH]c2cc(-c3ccccc3)ccc12)C1CC1", "inhibition [%]": 0.33}
{"COMPOUND": "CCN(CC)Cc1ccc(Nc2nccc(-c3cnn4ncccc34)n2)cc1", "inhibition [%]": -1.29}
{"COMPOUND": "CS(=O)(=O)CCNCc1ccc(-c2ccc3ncnc(Nc4ccc(OCc5ccccc5)c(Br)c4)c3c2)o1", "inhibition [%]": -3.44}
{"COMPOUND": "COC(=O)Nc1nc2ccc(Sc3ccc(NC(=O)Nc4cc(C(F)(F)F)ccc4F)cc3)cc2[nH]1", "inhibition [%]": 0.73}
{"COMPOUND": "C[C@@H](Oc1cc(-n2cnc3ccc(OC4CCN(C)CC4)cc32)sc1C(N)=O)c1ccccc1Cl", "inhibition [%]": -2.91}
{"COMPOUND": "O=C1Nc2ccc(I)cc2C1=Cc1cc(Br)c(O)c(Br)c1", "inhibition [%]": 1.78}
{"COMPOUND": "O=C(Nc1n[nH]c2nc(-c3ccc(O)cc3)c(Br)cc12)C1CC1", "inhibition [%]": 3.32}
{"COMPOUND": "C/C(Nc1ccc(S(N)(=O)=O)cc1)=C1/C(=O)Nc2ccccc21", "inhibition [%]": -2.53}
{"COMPOUND": "Fc1ccc(-c2ncn(C3CCNCC3)c2-c2ccnc(Oc3ccc4c(c3)OCO4)n2)cc1", "inhibition [%]": 0.23}
{"COMPOUND": "COc1ccc(-c2ccc3c(NC(=O)C4CC4)n[nH]c3n2)cc1", "inhibition [%]": 3.49}
{"COMPOUND": "COc1cc(Nc2ncc3c(C)nc(-c4cccc(Oc5ccccc5)c4)n3n2)cc(OC)c1OC", "inhibition [%]": 1.02}
{"COMPOUND": "O=C(Nc1ccc(Oc2ccc3[nH]c(NC(=O)c4ccccc4)nc3c2)cc1)Nc1cc(C(F)(F)F)ccc1F", "inhibition [%]": 1.05}
{"COMPOUND": "CCC(=O)Nc1ccc(C)c(-c2ccc(C(=O)NCC3CC3)cc2)c1", "inhibition [%]": 0.86}
{"COMPOUND": "Fc1ccc(-c2ncn(C3CCNCC3)c2-c2ccnc(Oc3ccc(Oc4ccccc4)cc3)n2)cc1", "inhibition [%]": 2.28}
{"COMPOUND": "Fc1ccc(-c2c(-c3ccncc3)nc3n2CCS3)cc1", "inhibition [%]": -3.31}
{"COMPOUND": "Nc1nccc(-c2c(-c3ccc(F)cc3)ncn2C2CCC(O)CC2)n1 (centres undefined)", "inhibition [%]": -1.82}
{"COMPOUND": "CN(C)c1ccc2c(c1)/C(=C/Nc1ccc(S(N)(=O)=O)cc1)C(=O)N2", "inhibition [%]": 2.06}
{"COMPOUND": "CCc1nccc2c1nc(-c1nonc1N)n2CC", "inhibition [%]": 0.28}
{"COMPOUND": "COc1cc2ncn(-c3cc(OCCc4ccccc4)c(C(N)=O)s3)c2cc1OC", "inhibition [%]": 1.12}
{"COMPOUND": "Cc1ccc(C(=O)NC2CCC2)cc1-c1ccc(C(=O)NCC2CC2)cc1", "inhibition [%]": 2.92}
{"COMPOUND": "COc1ccc2ncn(-c3cc(O[C@H](C)c4ccccc4Cl)c(C(N)=O)s3)c2c1", "inhibition [%]": -2.12}
{"COMPOUND": "c1ccc(-c2n[nH]cc2-c2ccnc(-c3ccc(OCCN4CCOCC4)cc3)c2)nc1", "inhibition [%]": -0.26}
{"COMPOUND": "COc1cc(Nc2ncc(-c3ccccc3)o2)cc(OC)c1OC", "inhibition [%]": -1.76}
{"COMPOUND": "COc1cccc(/C=N/Nc2ncnc3c2cnn3-c2cccc(OC)c2)c1", "inhibition [%]": 2.66}
{"COMPOUND": "CCc1cccc(CC)c1/C=C/c1cncc(C(=O)NC)c1", "inhibition [%]": 2.25}
{"COMPOUND": "N#Cc1ccc(Oc2nccc(-c3c(-c4ccc(F)cc4)ncn3C3CCNCC3)n2)cc1", "inhibition [%]": 2.37}
{"COMPOUND": "c1ccc(Oc2ccc(Nc3ncc(-c4ccccc4)o3)cc2)cc1", "inhibition [%]": -0.09}
{"COMPOUND": "CN(C)CCOc1ccc(-c2cc(-c3ccc4c(c3)CCC4=NO)c(-c3ccncc3)o2)cc1", "inhibition [%]": -0.65}
{"COMPOUND": "CNC(=O)c1cncc(/C=C/c2c(C)cccc2C)c1", "inhibition [%]": -2.01}
{"COMPOUND": "O=C1NC(=O)C(c2cccc(Cl)c2)=C1Nc1ccc(Cl)c(C(=O)O)c1", "inhibition [%]": 1.61}
{"COMPOUND": "Cc1nnc(-c2ccc(C)c(-c3ccc(C(=O)NCc4ccc(Cl)cc4)cc3)c2)o1", "inhibition [%]": 0.07}
{"COMPOUND": "FC(F)(F)c1cccc(Nc2nccc(-c3cnn4nc(-c5ccccc5)ccc34)n2)c1", "inhibition [%]": 0.22}
{"COMPOUND": "Cc1ccc(C(=O)NC(C)C)cc1-c1ccc(C(=O)NCC2CC2)cc1", "inhibition [%]": -3.94}
